Data credit: ChEMBL document CHEMBL1149881

biological target: Delta-type opioid receptor (Mus musculus, UniProt P32300); test: Displacement of [3H]DPDPE from delta opioid receptor in ICR mouse whole brain
Sequence (P32300 whole entry): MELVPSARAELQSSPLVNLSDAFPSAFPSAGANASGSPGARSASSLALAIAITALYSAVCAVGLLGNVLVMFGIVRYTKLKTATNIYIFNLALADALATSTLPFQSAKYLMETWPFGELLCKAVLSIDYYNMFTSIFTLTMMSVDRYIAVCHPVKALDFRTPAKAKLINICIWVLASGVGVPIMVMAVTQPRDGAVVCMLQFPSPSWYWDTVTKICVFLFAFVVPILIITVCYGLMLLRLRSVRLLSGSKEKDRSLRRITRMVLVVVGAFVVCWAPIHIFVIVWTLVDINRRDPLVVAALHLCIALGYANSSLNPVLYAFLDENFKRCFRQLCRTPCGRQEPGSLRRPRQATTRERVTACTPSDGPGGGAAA
Measured endpoint: IC50 (nM)
Report as a plain number; the unit nM is understood.

Form entry - test system: Delta-type opioid receptor (Mus musculus, UniProt P32300); read-out: IC50; compound: Oc1ccc2c3c1OC[C@H]1CC[C@]4(O)[C@H](C2)N(CC2CC2)CC[C@@]34C1
57.3
